# TARGET SYSTEM: MAP kinase p38 (Homo sapiens, UniProt O15264+Q15759+Q16539+P53778)
# PROTOCOL DESCRIPTION: In vitro inhibition of IL1-beta release from LPS stimulated human peripheral blood mononuclear cells.
# Assay type: functional
Please respond with yes when measured IC50 is strictly beneath 100 nM, and with no in all other cases.

Reference set (5 entries):
Cc1cc(C(=O)c2ccccc2C)ccc1Nc1ccccc1N :: no
Cc1ccccc1C(=O)c1ccc(Nc2ccccc2[N+](=O)[O-])cc1Cl :: no
Cc1ccccc1C(=O)c1ccc(Nc2ccccc2N)cc1Cl :: yes
Cc1ccccc1C(=O)c1ccc(Nc2ccccc2N)cc1 :: yes
COc1ccccc1C(=O)c1ccc(Nc2ccccc2N)cc1Cl :: yes

Let's switch to this molecule now.
Please check: IC50 for "Cc1ccccc1Cc1ccc(Nc2ccc(F)cc2N)cc1Cl" , strictly under 100 nM or not?
no

---

Measured IC50, listed per entry for reference.
# TARGET SYSTEM: Mitogen-activated protein kinase 14 (Homo sapiens)
# Sequence (Q16539 whole entry): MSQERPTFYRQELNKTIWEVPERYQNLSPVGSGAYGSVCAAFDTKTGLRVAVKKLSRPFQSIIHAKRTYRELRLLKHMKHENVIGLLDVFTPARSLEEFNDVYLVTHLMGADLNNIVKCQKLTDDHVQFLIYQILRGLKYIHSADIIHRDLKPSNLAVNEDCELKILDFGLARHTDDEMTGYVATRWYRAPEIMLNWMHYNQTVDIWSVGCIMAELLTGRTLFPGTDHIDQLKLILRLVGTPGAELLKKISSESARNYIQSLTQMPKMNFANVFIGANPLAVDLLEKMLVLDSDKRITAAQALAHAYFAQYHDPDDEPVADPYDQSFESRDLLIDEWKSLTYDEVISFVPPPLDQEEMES
# PROTOCOL DESCRIPTION: In vitro inhibitory activity determined against human mitogen-activated protein kinase p38 alpha
Return type: number; implicit unit nM.

Consider the worked cases shown below.
Nc1ccccc1Nc1ccc(C(=O)c2ccccc2)cc1 :: 145
CC(=O)Nc1ccccc1Nc1ccc(C(=O)c2ccccc2C)c(Cl)c1 :: 63
Cc1ccccc1C(=O)c1ccc(Nc2ccccc2N)cc1Cl :: 10

Now consider the entry below.
Given "Cc1cccc(C(=O)c2ccc(Nc3ccccc3N)cc2)c1" , report its IC50 on Mitogen-activated protein kinase 14 (Homo sapiens).
574

---

Measured IC50, listed per entry for reference.
# TARGET SYSTEM: MAP kinase p38 (Homo sapiens, UniProt O15264+Q15759+Q16539+P53778)
# PROTOCOL DESCRIPTION: In vitro inhibition of IL1-beta release from LPS stimulated human peripheral blood mononuclear cells.
# Assay type: functional
Return type: number; implicit unit nM.

State its IC50 for this molecule: "Nc1ccccc1Nc1ccc(C(=O)c2ccccc2-c2ccccc2)cc1"
483

State its IC50 for this molecule: "Cc1ccccc1C(=O)c1ccc(Nc2ccccc2)cc1Cl"
119

State its IC50 for this molecule: "Cc1ccccc1C(=O)c1ccc(Nc2ccccc2N)cc1C"
22

State its IC50 for this molecule: "Cc1ccccc1C(=O)c1ccc(N(C)c2ccccc2N)cc1Cl"
70
